Biological target: T1, human GIP receptor (human, UniProt P48546 22-466)
T1 sequence (looked up): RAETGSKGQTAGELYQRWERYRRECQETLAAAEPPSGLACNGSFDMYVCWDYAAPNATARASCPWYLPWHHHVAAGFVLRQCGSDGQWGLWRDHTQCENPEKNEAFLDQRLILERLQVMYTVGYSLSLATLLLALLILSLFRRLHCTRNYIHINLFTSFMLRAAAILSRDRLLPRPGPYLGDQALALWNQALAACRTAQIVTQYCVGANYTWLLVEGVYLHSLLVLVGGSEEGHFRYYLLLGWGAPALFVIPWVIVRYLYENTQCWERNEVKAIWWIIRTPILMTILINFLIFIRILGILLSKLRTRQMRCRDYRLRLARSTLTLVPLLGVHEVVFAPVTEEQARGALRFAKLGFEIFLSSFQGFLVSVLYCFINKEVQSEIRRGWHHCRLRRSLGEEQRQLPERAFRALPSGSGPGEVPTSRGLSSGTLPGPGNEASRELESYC
Experiment: cell-based or functional assay
Bridge positions count the residues as written; N and C are the ends. Square brackets hold non-standard residues; d marks the D form. Ends that are not written are not given here. Aib = CC(C)(N)C(=O)O
The entries below are paired with their reported In vitro activity compared with native peptide (%) vs GIP (cAMP EC50).
Value Type: In vitro activity compared with native peptide (%) vs GIP (cAMP EC50)

H[Aib]QGTFTSDYSKYLDEKRQKEFVNWLLAQC (bridge (positions not given here); also: ring formation between two underlined residues) [triple agonist of SEQ ID NO: 56]
0.8
H[Aib]QGTFTSDYSKYLDEKRQKEFVNWLLAQKC (bridge 16-20) [triple agonist of SEQ ID NO: 34]
0.6
Y[Aib]QGTFTSDYSKYLDEKRAKEFVQWLLDCHPSSGQPPPS (bridge 16-20) [triple agonist of SEQ ID NO: 97]
2.6
